target: Neu5Ac(a2-3)Gal(b1-4)GlcNAc(b1-6)[Neu5Ac(a2-3)Gal(b1-3)]GalNAc; test: glycan array binding signal (z-score within array); higher = stronger binding; conditions: glycan notation: IUPAC condensed, linker removed
The entries come from a sample that favours the strongest signals as a whole.
readout name: glycan array binding signal (z-score)
# respond with the number and nothing more

Task item: Value lookup for glycan array binding signal (z-score); key = RobpsCRA (Robinia pseudoacacia) (protein) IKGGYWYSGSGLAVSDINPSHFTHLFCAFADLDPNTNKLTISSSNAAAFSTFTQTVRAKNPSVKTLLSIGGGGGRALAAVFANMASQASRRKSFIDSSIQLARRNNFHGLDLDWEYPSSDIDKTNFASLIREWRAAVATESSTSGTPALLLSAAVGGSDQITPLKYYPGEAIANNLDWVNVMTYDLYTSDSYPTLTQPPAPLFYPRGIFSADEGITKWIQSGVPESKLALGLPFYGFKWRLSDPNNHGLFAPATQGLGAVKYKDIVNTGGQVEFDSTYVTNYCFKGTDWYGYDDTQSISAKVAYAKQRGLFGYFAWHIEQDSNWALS
Reply: -0.478
